Listed here: items and their measured log10(IC50).
- Tested on: phosphorylation of eIF4E at ser209 in MV4.11 cell line
- assay-comment: MNK cellular activity phospho-eIF4E detection assay (Alphascreen Surefire)
- Format: cell-based
- cond: Homo sapiens; MV4.11 cell line, phospho-eIF4E (ser209) Alphascreen Surefire; read-out: P(IC50) elF4E (converted)
reported-property: log10(IC50) (log10 of the value in nM)

[[record]]
molecule = "O=C(NC1CCOCC1)c1nc2c(N3CC4(CCCC4)c4ccccc43)ncnc2s1"
reported_property = "log10(IC50)"
test_value = 1.30

[[record]]
molecule = "O=C(NC1CCOCC1)c1nc2c(-n3ccc4ccccc43)ncnc2s1"
reported_property = "log10(IC50)"
test_value = 1.70

[[record]]
molecule = "O=C(NC1CC1)c1nc2c(N3CCc4ccccc43)ncnc2s1"
reported_property = "log10(IC50)"
test_value = 1.20

[[record]]
molecule = "NCCC1CN(c2ncnc3sc(C(=O)NC4CCOCC4)nc23)c2ccccc21 (stereo not drawn)"
reported_property = "log10(IC50)"
test_value = 1.80

[[record]]
molecule = "CNCC1CN(c2ncnc3sc(C(=O)NC4CCOCC4)nc23)c2ccccc21 (stereo not drawn)"
reported_property = "log10(IC50)"
test_value = 2.10

[[record]]
molecule = "CC1(C)CN(c2ncnc3sc(C(=O)NC4CCNCC4)nc23)c2ccccc21"
reported_property = "log10(IC50)"
test_value = 0.90

[[record]]
molecule = "CC1CN(c2ncnc3sc(C(=O)NC4CCN(C)CC4)nc23)c2ccccc21 (stereo not drawn)"
reported_property = "log10(IC50)"
test_value = 0.60

[[record]]
molecule = "CC(C)Oc1cc(F)ccc1Nc1ncnc2sc(C(=O)NCC3CCOCC3)nc12"
reported_property = "log10(IC50)"
test_value = 1.90

[[record]]
molecule = "CNCCCNC(=O)c1nc2c(N3c4ccccc4C[C@@H]3C)ncnc2s1"
reported_property = "log10(IC50)"
test_value = 1.60

[[record]]
molecule = "O=C(NC1CCOCC1)c1nc2c(N3CCc4cc(Cl)cc(F)c43)ncnc2s1"
reported_property = "log10(IC50)"
test_value = 2.00

[[record]]
molecule = "CC(C)Oc1cc(F)ccc1Nc1ncnc2sc(C(=O)N3CCC(CCO)CC3)nc12"
reported_property = "log10(IC50)"
test_value = 2.50

[[record]]
molecule = "CC(C)Oc1cc(F)ccc1Nc1ncnc2sc(C(=O)N3CC4(CNC4)C3)nc12"
reported_property = "log10(IC50)"
test_value = 2.50


---

- test-target: Full-length human MNK1 (Homo sapiens, UniProt Q9BUB5, T385D)
- Construct: GST (N); purchased Carna Biosciences 02-145; host or cells: baculovirus expression system
- Sequence (Q9BUB5 1-424 isoform Q9BUB5-2 T344D): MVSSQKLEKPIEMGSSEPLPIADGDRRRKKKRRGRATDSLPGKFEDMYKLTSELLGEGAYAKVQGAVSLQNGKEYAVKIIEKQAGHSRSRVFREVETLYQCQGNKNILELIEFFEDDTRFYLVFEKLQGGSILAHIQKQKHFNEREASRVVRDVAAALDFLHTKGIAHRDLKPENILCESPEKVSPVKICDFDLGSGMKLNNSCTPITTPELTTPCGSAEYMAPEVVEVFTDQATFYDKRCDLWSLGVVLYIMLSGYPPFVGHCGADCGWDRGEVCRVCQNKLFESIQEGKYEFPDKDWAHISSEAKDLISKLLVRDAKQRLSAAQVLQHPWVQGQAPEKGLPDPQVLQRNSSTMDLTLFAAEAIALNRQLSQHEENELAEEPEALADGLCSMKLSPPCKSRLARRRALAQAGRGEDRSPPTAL
- assay-comment: MNK1 biochemical IC50 assay (Caliper Mobility Shift Assay)
- cond: read-out: P(IC50) MNK1 (converted)
- From the text: The phosphorylated peptide product and unphosphorylated peptide substrate were detected using a Caliper Mobility Shift Assay using the Caliper LabChip EZ Reader II. The Caliper Mobility Shift Assay technology is based on the utilisation of a microfluidic chip to measure the conversion of a fluorescent non-phosphorylated peptide substrate to phosphorylated product by electrophoresis separation of substrate and product and detection via Laser-induced fluorescence. […]
reported-property: IC50

[[record]]
compound = "O=C(NCC(O)CO)c1nc2c(N3CCc4ccccc43)ncnc2s1 (stereo not shown) [Example 104]"
test_target = "Full-length human MNK1 (Homo sapiens, UniProt Q9BUB5, T385D)"
reported_property = "IC50"
test_value = "20 nM"

[[record]]
compound = "O=C(NC1CCOCC1)c1nc2c(N3CCc4cc(O)ccc43)ncnc2s1 [Example 114]"
test_target = "Full-length human MNK1 (Homo sapiens, UniProt Q9BUB5, T385D)"
reported_property = "IC50"
test_value = "2.51 nM"

[[record]]
compound = "CN1CCN(CCC2CN(c3ncnc4sc(C(=O)NC5CCOCC5)nc34)c3ccccc32)CC1 (stereo not shown) [Example 155]"
test_target = "Full-length human MNK1 (Homo sapiens, UniProt Q9BUB5, T385D)"
reported_property = "IC50"
test_value = "126 nM"

[[record]]
compound = "O=C(NC1CC1)c1nc2c(N3CCc4ccccc43)ncnc2s1 [Example 99]"
test_target = "Full-length human MNK1 (Homo sapiens, UniProt Q9BUB5, T385D)"
reported_property = "IC50"
test_value = "12.6 nM"

[[record]]
compound = "CC(C)Oc1cc(F)ccc1Nc1ncnc2sc(C(=O)NC3CCNCC3)nc12 [Example 31]"
test_target = "Full-length human MNK1 (Homo sapiens, UniProt Q9BUB5, T385D)"
reported_property = "IC50"
test_value = "63.1 nM"

[[record]]
compound = "O=C(NCC1CCOCC1)c1nc2c(N3CCc4ccccc43)ncnc2s1 [Example 103]"
test_target = "Full-length human MNK1 (Homo sapiens, UniProt Q9BUB5, T385D)"
reported_property = "IC50"
test_value = "10 nM"

[[record]]
compound = "NCCC1CN(c2ncnc3sc(C(=O)NC4CC4)nc23)c2ccccc21 (stereo not shown) [Example 164]"
test_target = "Full-length human MNK1 (Homo sapiens, UniProt Q9BUB5, T385D)"
reported_property = "IC50"
test_value = "5.01 nM"


This collection of values is drawn from patent US10669284B2.
